Test system: UACC-257
Assay explanation: NCI tumour cell line growth inhibition, 48 h
Calls of active or inactive are those of the source. No stated cut-off is given here; in the data, active = GI50 up to about 1.1 µM and inactive = higher.

Compound: Cc1ccc(C(=O)N/N=C(\N=N\c2cccc(C)c2)c2ccc(N(CCC#N)CCC#N)cc2C)cc1
System: UACC-257
GI50: 58.9 µM (inactive)
//
Compound: CC1(C)O[C@H]2OC(CO[Si](C)(C)C(C)(C)C)C(N=[N+]=[N-])[C@H]2O1 (stereo partly specified)
System: UACC-257
GI50: 18 µM (inactive)
//
Compound: O=[N+]([O-])O
System: UACC-257
GI50: > 100 µM (inactive)
//
Compound: Nc1nc(SC/C=C/c2ccccc2)c2[nH]cnc2n1
System: UACC-257
GI50: > 100 µM (inactive)
//
Compound: CCOC(=O)C(=CNc1ccc(NC2=NCC(C)S2)cc1)C(=O)OCC (stereo unspecified)
System: UACC-257
GI50: 26.5 µM (inactive)
//
Compound: CNc1ccc2nc(-c3ccc(OC(=O)N(C)C)cc3)cn2c1
System: UACC-257
GI50: 50.4 µM (inactive)
//
Compound: CCOC(=O)c1ccc(Nc2nc3ccccc3n3cccc23)cc1
System: UACC-257
GI50: > 100 µM (inactive)
//
Compound: Cc1ccc2c(=O)cc(Cc3cccs3)[nH]c2n1
System: UACC-257
GI50: > 100 µM (inactive)
//
Compound: Clc1ccc(-c2cc(-c3nc4ccccc4[nH]3)no2)cc1
System: UACC-257
GI50: 18.8 µM (inactive)
//
Compound: O=C(/C=C/c1ccccc1)C[C@@H](O)C[C@@H]1CC=CC(=O)O1
System: UACC-257
GI50: 13.6 µM (inactive)
//
Compound: C#CCOCn1cnc2c(N)ncnc21
System: UACC-257
GI50: > 100 µM (inactive)

====

// reported GI50 per item
Test system: HCT-116
Assay explanation: NCI tumour cell line growth inhibition, 48 h
The source made the active and inactive calls. Cut-off read from the data, not from the text of the source: active = GI50 up to about 1.1 µM and inactive = higher.
Result type: GI50

Compound: Cc1ccc2c(=O)cc(Cc3cccs3)[nH]c2n1
Result: > 100 µM (inactive)

Compound: COc1cccc(NC(=O)CC(=O)N2N=C(C)C(/N=N/c3ccc(C(=O)O)cc3)C2=O)c1 (stereo unspecified)
Result: > 100 µM (inactive)

Compound: Cc1nc(C)c(N2CCN(S(=O)(=O)N(Cc3ccccc3)Cc3ccccc3)CC2)c(O)n1
Result: 53 µM (inactive)

Compound: COc1cc2c(cc1OC)[C@H]1C(COC(=O)Nc3ccccc3)CN1CC2 (stereo partly specified)
Result: > 100 µM (inactive)

Compound: CCOC(=O)NC(Nc1ccc(C(=O)O)cc1)(C(F)(F)F)C(F)(F)F
Result: > 100 µM (inactive)

Compound: CCOC(=O)c1cnc(N(C)C)nc1SC(=N)N
Result: > 100 µM (inactive)

====

Tested on: SK-MEL-2
Assay explanation: NCI tumour cell line growth inhibition, 48 h
Activity calls are given as the source filed them. Cut-off read from the data, not from the text of the source: active = GI50 up to about 1.1 µM and inactive = higher.

Molecule: CC1(C)C[C@@H]2C1CCC1(C)CC2(O)CC[C@H]1O (some centres undefined)
GI50: > 100 µM (inactive)

Molecule: O=[N+]([O-])c1ccc(S(=O)(=O)Cc2ccccc2)c2nonc12
GI50: 19.3 µM (inactive)

Molecule: CC1=C(C(=O)NNC(=O)C[N+](C)(C)C)CC(C(=O)NNC(=O)C[N+](C)(C)C)=C(C)N1
GI50: > 100 µM (inactive)

Molecule: CC(C)C(Sc1nc(-c2ccccc2)c(-c2ccccc2)[nH]1)C(=O)N/N=C/c1ccc(Cl)cc1 (centres undefined)
GI50: 17.5 µM (inactive)

Molecule: CC(C)(C)C(=O)C(C(=O)c1ccccc1)C(=O)C(C)(C)C
GI50: > 100 µM (inactive)

Molecule: CC(=O)NC1c2ccccc2C(C)(C)C12CCC1(CC2)OCCO1 (centres undefined)
GI50: > 100 µM (inactive)

Molecule: O=NN(Cc1ccc(Cl)cc1)C(C(=O)O)c1ccccc1 (centres undefined)
GI50: > 100 µM (inactive)

Molecule: COCN1C(=O)[C@@H]2CCCN2C(=O)c2ccc(N)cc21
GI50: > 100 µM (inactive)

Molecule: Oc1ccc(-c2nc3ccc(F)cc3s2)cc1
GI50: 19.1 µM (inactive)

Molecule: CNS(=O)(=O)NN(C)S(=O)(=O)c1ccc(C)cc1
GI50: > 100 µM (inactive)

Molecule: CC1CCCN(CP(=O)(c2ccccc2)c2ccccc2)C1 (centres undefined)
GI50: > 100 µM (inactive)

Molecule: O=C1c2ccccc2C(=O)c2nn(N=P(CP(=Nn3nc4c(n3)C(=O)c3ccccc3C4=O)(c3ccccc3)c3ccccc3)(c3ccccc3)c3ccccc3)nc21
GI50: > 100 µM (inactive)

Molecule: COc1cccc(C2SCc3nc4ccccc4n32)c1 (centres undefined)
GI50: 56.2 µM (inactive)

Molecule: O=C1c2ccccc2-c2nc(/C=C/c3ccccc3)cc3c2c1nc1ccccc13
GI50: 21.6 µM (inactive)

Molecule: O=C(C[n+]1ccc2ccccc2c1)c1ccc2ccc3ccccc3c2c1
GI50: 4.56 µM (inactive)

Molecule: O=C(O)c1c2c(cc3c1CC1(Cc4cc5c(cc4C1=O)CCC5)C3)CCC2 (centres undefined)
GI50: > 100 µM (inactive)

Molecule: C=CCN1C[C@@H](C)N([C@@H](c2ccccc2)c2ccc(C(=O)N(CC)CC)cc2)C[C@@H]1C
GI50: > 100 µM (inactive)

Molecule: CCOC(C)O[C@H]1C(=O)OCC1(C)C (some centres undefined)
GI50: > 100 µM (inactive)

Molecule: C/C(=N\N=C(/S)N(C)C)c1cccc[n+]1[O-]
GI50: 38.5 µM (inactive)

Molecule: CC(=O)N(CCN)CCN
GI50: > 100 µM (inactive)

Molecule: O=C(O)C(CO)NC(=O)C1C(C(=O)O)C(c2ccccc2[N+](=O)[O-])C=C(c2ccco2)N1c1ccncc1 (centres undefined)
GI50: 16.3 µM (inactive)

Molecule: CCC(C)(O)c1cnc(CC(C)C)c(=O)n1O (centres undefined)
GI50: 57.3 µM (inactive)

Molecule: COC(OC)c1cc2c(cc1C=O)OCO2
GI50: > 100 µM (inactive)

Molecule: NC(=O)c1c(NC=O)ncn1C1OCC(O)C(O)C1O (centres undefined)
GI50: > 100 µM (inactive)

====

Reported GI50 by item:
Test system: M14
Assay explanation: NCI tumour cell line growth inhibition, 48 h
Active and inactive are the calls of the source. Cut-off read from the data, not from the text of the source: active = GI50 up to about 1.1 µM and inactive = higher.
Result type: GI50

Compound: NC(CC(=O)OCc1ccccc1)C(=O)OCc1ccccc1 (stereo not given)
System: M14
Result: > 100 µM (inactive)

Compound: Cc1nn(C(=O)c2ccc(Cl)cc2)c2c1C(c1ccc(Cl)cc1)SC(=N)N2 (stereo not given)
System: M14
Result: > 10 µM (inactive)

Compound: CCCCCCCCCCCCOC1C(COCCN2CCCCC2)OC2OC(C)(C)OC21 (stereo not given)
System: M14
Result: 1.63 µM (inactive)

Compound: CC(=O)OC1CC[C@@]2(C)C(=CC[C@@H]3[C@@H]2CC[C@]2(C)Nc4nn(S(C)(=O)=O)cc4C[C@@H]32)C1 (stereo not given in full)
System: M14
Result: 20.7 µM (inactive)

Compound: Cc1ccc(S(=O)(=O)N2CCCSCCN(S(=O)(=O)c3ccc(C)cc3)CCCSCC2)cc1
System: M14
Result: > 100 µM (inactive)

====

Tested on: RXF 393
Assay explanation: NCI tumour cell line growth inhibition, 48 h
Active and inactive are the calls of the source. Rule as the data show it: active = GI50 up to about 1.1 µM and inactive = higher.

Molecule: O=c1[nH]ncc2[nH]c3c(c12)CCCc1ccccc1-3
System: RXF 393
GI50: 15.1 µM (inactive)

Molecule: COC1(OC)C2C=CC1C([C@](C)(N)CO)C2 (stereo partly specified)
System: RXF 393
GI50: > 100 µM (inactive)

Molecule: O=C1CCC2(c3ccc(Cl)cc3)Nc3ccccc3N12 (stereo unspecified)
System: RXF 393
GI50: 48.3 µM (inactive)

Molecule: CN(C)CCCNC(=O)c1cc(NC(=O)c2cc(NC(=O)CCCn3c4ccccc4c4ccccc43)cn2C)cn1C
System: RXF 393
GI50: 12.6 µM (inactive)

Molecule: CC1=C(Cl)C=CP(=O)(OC(C)C)C1 (stereo unspecified)
System: RXF 393
GI50: > 100 µM (inactive)

Molecule: CC1=CC2C(=O)N(c3ccccc3)C(=O)C2CC1n1[nH]c(=O)n(Cc2ccccc2)c1=O (stereo unspecified)
System: RXF 393
GI50: > 100 µM (inactive)

====

Tested on: MCF7
Assay explanation: NCI tumour cell line growth inhibition, 48 h
The source made the active and inactive calls. Rule as the data show it: active = GI50 up to about 1.1 µM and inactive = higher. *1 amine or outer side, *2 acyl side, *3 side chain or, on linkers, in order; H or OH if unused. Where a SMILES comes first, the peptide text is derived from it. The star is where a group is joined. γGlu = O=C(O)[CH](CCC(=O)[*:2])N[*:1]; NHOH = ON*
Classes used: class 1 (active), class 0 (inactive)

Compound: Nc1nc(SC/C=C/c2ccccc2)c2[nH]cnc2n1
Discrete label: class 0

Compound: CN(CO)c1nc(N(C)CO)nc(N(C)CO)n1
Discrete label: class 0

Compound: CCOC(=O)c1cnc(N(C)C)nc1SC(=N)N
Discrete label: class 0

Compound: CN(C)CC1CC/C(=C\c2ccc(O)cc2)C1=O (configuration not stated)
Discrete label: class 0

Compound: CS(=O)(=O)c1ccc(/C=N/NC(N)=S)cc1
Discrete label: class 0

Compound: CC(=O)[C@]1(O)Cc2c(O)c3c(c(O)c2C(OC2OC(C)C(O)C(O)C2F)C1)C(=O)c1ccccc1C3=O (some centres not stated)
Discrete label: class 1

Compound: OCCN1CCN(c2nc(N3CCCC3)c3nc(Cl)c(NCc4ccccc4)nc3n2)CC1
Discrete label: class 0

Compound: C=C[C@@H]1C[C@]2(C(=O)OC)Cc3nc4ccccc4nc3CC(C(=O)OC)=C2O1
Discrete label: class 0

Compound: COc1ccc2c(c1)OC(c1cccnc1)C(c1ccccc1)C2=O (configuration not stated)
Discrete label: class 0

Compound: CC(=O)Nc1nnc(S(C)(=O)=O)s1
Discrete label: class 0

Compound: Cc1csc(-c2cn(C)c3c2C(=O)C(=N)C=C3O)n1
Discrete label: class 0

Compound: ClC1=C(Cl)C(Cl)(Cl)SS1
Discrete label: class 0

Compound: NC(CCC(=O)NC(CCC(=O)NO)C(=O)NCC(=O)O)C(=O)O (configuration not stated) (γGlu-Glu(NHOH)-Gly-OH; configuration not given here)
Discrete label: class 0

Compound: Cc1cc(O)c2c(c1O)C(=O)C1=C(C2=O)C(=O)C2C(O)C1C1C(O)CC(O)=C3C(=O)c4c(O)cc(C)c(O)c4C(=O)C321 (configuration not stated)
Discrete label: class 0

Compound: Cc1ccsc1/C=N/Nc1ccc2ccccc2n1
Discrete label: class 0

Compound: OCC1OC(NC(=S)NCSCCC(F)(F)C(F)(F)C(F)(F)C(F)(F)C(F)(F)C(F)(F)F)C(O)C(O)C1O (configuration not stated)
Discrete label: class 0

Compound: CCOC(=O)C1=NN(c2ccccc2)C2=CC(C)=NN(C)C(=S)N21
Discrete label: class 0

Compound: COc1ccc(CNC2=Nc3ccncc3S(=O)(=O)N2c2ccccc2)cc1
Discrete label: class 0

Compound: O=C(O)CC(C(=O)O)C1c2ccccc2-c2ccccc21 (configuration not stated)
Discrete label: class 0

Compound: Cc1ccc(C(=O)Nc2ncn(C3CC(O)C(CO)O3)c(=O)n2)cc1 (configuration not stated)
Discrete label: class 0

Compound: Cc1ccc(S(=O)(=O)N2CCCSCCN(S(=O)(=O)c3ccc(C)cc3)CCCSCC2)cc1
Discrete label: class 0

Compound: CN(C)/C=N/S(=O)(=O)c1nn2c(C=O)c(-c3cc4ccccc4oc3=O)nc2s1
Discrete label: class 0
